Sourced from patent US20250243286A1

Listing of entries alongside the reported Kd.
Biological target: T1, human ActRIIA (human, UniProt P27037 20-135, limits assumed);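 note: solution equilibrium titration: antibodies held at fixed concentration, equilibrated overnight at 4 °C with serially diluted ActR2A or ActR2B, unbound antibody captured on antigen-coated plate, electrochemiluminescence readout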
T1 construct: antigen in MSD-SET; also called ACVR2A; ActR2A
T1 sequence (P27037 20-135 limits assumed): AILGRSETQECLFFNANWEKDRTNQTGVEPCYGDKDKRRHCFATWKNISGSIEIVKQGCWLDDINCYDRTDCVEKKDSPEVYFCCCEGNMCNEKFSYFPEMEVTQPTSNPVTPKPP
Assay: MSD-SET
Kindly provide the numeric value in nM only, without the unit symbol.

Below are worked cases with known answers.
binder="Antibody Floischbrühsupp (antibody, V domains shown, full-length IgG) VH: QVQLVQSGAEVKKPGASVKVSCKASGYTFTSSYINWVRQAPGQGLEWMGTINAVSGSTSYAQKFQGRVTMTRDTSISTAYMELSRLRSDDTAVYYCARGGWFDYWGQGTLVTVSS VL: QSALTQPASVSGSPGQSITISCTGTSSDVGSFNYVNWYQQHPGKAPKLMIKGVSKRESGVSNRFSGSKSGNTASLTISGLQAEDEADYYCGTFAGGAYYGVFGGGTKLTVL" endpoint_label=Kd reported_measurement=0.023
binder="Antibody Springerle (antibody, V domains shown, full-length IgG) VH: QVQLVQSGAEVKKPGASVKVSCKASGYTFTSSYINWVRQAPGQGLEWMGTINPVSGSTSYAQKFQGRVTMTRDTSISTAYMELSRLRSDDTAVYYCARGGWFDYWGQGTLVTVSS VL: QSALTQPASVSGSPGQSITISCTGTSSDVGSYNYVNWYQQHPGKAPKLMIYGVSKRESGVSNRFSGSKSGNTASLTISGLQAEDEADYYCGTFAGGSYRGVFGGGTKLTVL" endpoint_label=Kd reported_measurement=0.027

Data request: Specify reported Kd for the binder shown: Antibody Fasnetsküchla (antibody, V domains shown, full-length IgG) VH: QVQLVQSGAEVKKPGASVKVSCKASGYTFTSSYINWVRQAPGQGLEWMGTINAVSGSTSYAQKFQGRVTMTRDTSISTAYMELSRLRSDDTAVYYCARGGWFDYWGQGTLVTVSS VL: QSALTQPASVSGSPGQSITISCTGTSSDVGSANYVNWYQQHPGKAPKPMIYGVSRRPSGVSNRFSGSKSGNTASLTISGLQAEDEADYYCGTFAGGKYYGVFGGGTKLTVL
Data returned: 0.029
